Form field: Population Mitotic Cells (%) (one value per entry).
- System: Fibroblast
- assay summary: Multiplex assay against human fibroblast
- Assay type: toxicity, cell-based
- protocol conditions: 12 h, 1 µM, compound concentration 1 uM, replicate 1
Enter your answer as a number in %; do not include the unit.

Below, 2 compounds whose answers are already recorded.
COc1cc(C(=O)N(CCCc2ccccc2)Cc2ccc(CC(=O)O)cc2)cc(OC)c1C = 36
O=C(NCC(=O)N1CC[C@H](N[C@H]2CC[C@@](O)(c3ccc(-c4ncccn4)cn3)CC2)C1)c1cccc(C(F)(F)F)c1 [PF-4136309] = 46

Now for another entry.
Reported Population Mitotic Cells (%) of Cc1ccc(/C(=C\CN2CCCC2)c2ccccn2)cc1 [TRIPROLIDINE] : 47
